TESTED ON: Alkaline phosphatase, placental type (Homo sapiens)
ASSAY NOTES: PLAP enzyme activators, dose response, mouse IAP activator project, biochemical, uHTS hits (AID 488878)
CONDITION SET: purified human PLAP enzyme activity
The source made the active and inactive calls. How the calls were made is not given here.
// one of YES (active), NO (inactive), no free text

Hi, do you know how COc1cccc(C(C)NC(=O)Nc2cccc(C(F)(F)F)c2)c1 (stereo not drawn) came out in this test?
NO

Hi, do you know how COc1cc(OC)c(NC(=O)CN(C)S(=O)(=O)c2ccc3[nH]c(=O)oc3c2)cc1Cl came out in this test?
YES

Hi, do you know how O=C(CSc1nc2ccccc2o1)N/N=C/c1ccc(O)c(O)c1 came out in this test?
YES

Hi, do you know how S=C(NCc1ccccc1)NC1CCSc2ccccc21 (stereo not drawn) came out in this test?
NO

Hi, do you know how NNC(=O)c1cc(O)c(O)c(O)c1 came out in this test?
YES

Hi, do you know how COc1ccc(OC)c(NC(=O)CCNS(=O)(=O)c2ccc3[nH]c(=O)oc3c2)c1 came out in this test?
NO

Hi, do you know how Cc1ccc(C(=O)Nc2nnc(CC(=O)N/N=C/c3ccc(O)c(O)c3)s2)cc1 came out in this test?
YES

Hi, do you know how COc1ccc(N=C2SC(C(N)=O)CC(=O)N2CCc2ccc(OC)c(OC)c2)cc1 (stereo not drawn) came out in this test?
YES

Others:
Hi, do you know how CC(C)c1ccc(NC(=O)NC2CCN(CC(=O)Nc3cccc4ccccc34)CC2)cc1 came out in this test?
YES

Hi, do you know how NS(=O)(=O)c1cc(C(=O)NC2CCSc3ccccc32)ccc1Cl (stereo not drawn) came out in this test?
YES

Hi, do you know how O=C1NC(=S)NC(=O)C1=Cc1ccc(Br)s1 came out in this test?
YES

Hi, do you know how O=C(O)C(c1ccccc1)N1C(=O)/C(=C\c2ccc(O)c(O)c2)SC1=S (stereo not drawn) came out in this test?
YES

Hi, do you know how CC1(C(=O)NNC(=O)c2ccc(=O)oc2)CC1Br (stereo not drawn) came out in this test?
YES

Hi, do you know how O=C(N/N=C/c1cn(Cc2cccc(F)c2)c2ccccc12)c1cc(O)cc(O)c1 came out in this test?
YES

Hi, do you know how O=C(O)CC(CCc1ccccc1)OC1OC(CO)C(O)C(O)C1O (stereo not drawn) came out in this test?
YES

Hi, do you know how O=c1cc(-c2ccc(O)cc2)oc2c(O)c(O)c(O)c(O)c12 came out in this test?
YES

Hi, do you know how O=C(Nc1ccc(Cl)c(C(F)(F)F)c1)NC1CC2CCCC(C1)N2Cc1ccccc1 (stereo not drawn) came out in this test?
NO

* * *

TESTED ON: Alkaline phosphatase, placental type (Homo sapiens)
ASSAY NOTES: PLAP enzyme activators, dose response, mouse IAP activator project, biochemical, uHTS hits (AID 488878)
CONDITION SET: purified human PLAP enzyme activity
Calls of active or inactive are those of the source. The rule behind the calls is not given here.
// one of yes = active, no = inactive, no free text

Solved cases (4 shown):
Hi, do you know how CSC1=NSC2=NC(=O)/C(=C/c3coc4ccc(O)cc4c3=O)C(=N)N12 came out in this test?
yes

Hi, do you know how O=c1oc2cc(O)ccc2s1 came out in this test?
yes

Hi, do you know how O=C1C=C(O)c2c(O)cc(O)c(O)c2C1=O came out in this test?
no

Hi, do you know how Oc1ccc(/C=N/N=C/c2ccc(O)c(O)c2)cc1O came out in this test?
yes

Others:
Hi, do you know how CNc1nnc(-c2cc3ccccc3oc2=O)s1 came out in this test?
no

Hi, do you know how COc1ccc(S(=O)(=O)Nc2ccc(O)c(Sc3ncn[nH]3)c2)cc1 came out in this test?
yes

* * *

TESTED ON: Alkaline phosphatase, placental type (Homo sapiens) (UniProt P05187)
ASSAY NOTES: PLAP enzyme activators, dose response, mouse IAP activator project, biochemical, uHTS hits (AID 488878)
CONDITION SET: purified human PLAP enzyme activity
Active and inactive are the calls of the source. The rule behind the calls is not given here.
// one of active, inactive, no free text

Hi, do you know how O=C(CN1C(=O)/C(=C/c2ccco2)SC1=S)Nc1ccc(C(=O)O)c(O)c1 came out in this test?
inactive

Hi, do you know how O=C(COC(=O)c1ccc(Br)o1)Nc1ncc([N+](=O)[O-])s1 came out in this test?
active

Others:
Hi, do you know how Cc1ccc(NC(=O)CN(C)S(=O)(=O)c2ccc3[nH]c(=O)oc3c2)c(C)c1 came out in this test?
active

Hi, do you know how CC(C(=O)Nc1ccc(C(=O)O)c(O)c1)N1C(=O)/C(=C\c2ccco2)SC1=S (stereo unspecified) came out in this test?
active

Hi, do you know how NS(=O)(=O)c1ccc(NC(=S)NC(=O)/C=C/c2ccco2)cc1 came out in this test?
inactive

Hi, do you know how CCOc1cc(/C=C2\CCC/C(=C\c3cc(Cl)c(O)c(OCC)c3)C2=O)cc(Cl)c1O came out in this test?
inactive

Hi, do you know how COc1cccc(CNC(=O)CCNS(=O)(=O)c2ccc3[nH]c(=O)oc3c2)c1 came out in this test?
inactive

Hi, do you know how Cc1ccc(CN2C3CCCC2CC(NC(=S)NCc2ccccc2)C3)cc1 (stereo unspecified) came out in this test?
inactive

Hi, do you know how Cc1ccc(NS(=O)(=O)c2ccc3[nH]c(=O)oc3c2)c(C)c1 came out in this test?
active

Hi, do you know how O=C(CN1C(=O)/C(=C/c2ccco2)SC1=S)NC1CCS(=O)(=O)C1 (stereo unspecified) came out in this test?
inactive

Hi, do you know how O=C(NN1C(=O)/C(=C/C=C/c2ccco2)SC1=S)c1ccncc1 came out in this test?
inactive

Hi, do you know how O=C(N/N=C/c1ccc(O)cc1O)C(=O)N/N=C/c1ccc(O)cc1O came out in this test?
inactive

Hi, do you know how O=C(CCO)c1ccc(O)cc1 came out in this test?
active

Hi, do you know how N#C/C(=C\c1coc2ccc(O)cc2c1=O)C(=O)Nc1nc2ccccc2s1 came out in this test?
active

* * *

TESTED ON: Alkaline phosphatase, placental type (Homo sapiens)
ASSAY NOTES: PLAP enzyme activators, dose response, mouse IAP activator project, biochemical, uHTS hits (AID 488878)
CONDITION SET: purified human PLAP enzyme activity
Active and inactive are the calls of the source. No rule for the calls is given here.
// one of Yes = active, No = inactive, no free text

Solved cases (5 shown):
Hi, do you know how Oc1ccc(C[C@H]2NCCc3cc(O)c(O)cc32)cc1O came out in this test?
No

Hi, do you know how C[N+](C)(C)C(Cc1ccccc1)C(=O)[O-] (configuration not stated) came out in this test?
Yes

Hi, do you know how O=C1/C(=C/C=C/c2ccco2)SC(=S)N1NS(=O)(=O)c1ccccc1 came out in this test?
No

Hi, do you know how N#Cc1cccc(NC(=O)CCNS(=O)(=O)c2ccc3[nH]c(=O)oc3c2)c1 came out in this test?
Yes

Hi, do you know how COc1ccc(NC(=O)CCNS(=O)(=O)c2ccc3[nH]c(=O)oc3c2)cc1Cl came out in this test?
Yes

Others:
Hi, do you know how Cc1cc(=O)[nH]c(N/N=C/c2ccc(O)c(O)c2)n1 came out in this test?
Yes

Hi, do you know how COc1ccccc1CNC(=O)CCNS(=O)(=O)c1ccc2[nH]c(=O)oc2c1 came out in this test?
Yes

Hi, do you know how O=c1[nH]c(/C=C\c2ccc(O)c(O)c2)nc(O)c1[N+](=O)[O-] came out in this test?
No

Hi, do you know how O=C(Cc1nnc(NC(=O)c2ccccc2)s1)N/N=C\c1ccc(O)c(O)c1 came out in this test?
No

Hi, do you know how O=C(N/N=C/c1ccc(O)c(O)c1)N/N=C/c1ccc(O)c(O)c1 came out in this test?
Yes

Hi, do you know how C=CCn1c(SCC(=O)c2ccc(O)c(O)c2)nnc1-c1cccc(OC)c1 came out in this test?
Yes

Hi, do you know how Oc1ccc(-c2csc(Nc3ccccn3)n2)cc1O came out in this test?
Yes
